test system: PABPC1 PABC; type: binding, human; details: DMS-BM library, bait PABPC1 PABC, prey ATXN2, peptide KSTLNPNAKEFNPRSF; T = wild type, row aa = residue at this position
Recorded DMS-derived PSSM value, position T3 for the following sequences

{"columns": ["MONOMER_SEQUENCE", "DMS-derived PSSM value, position T3"],
 "data": [
  ["KSTLNPNAKEFNPRSF T3G (KSGLNPNAKEFNPRSF)", 0.0785],
  ["KSTLNPNAKEFNPRSF T3D (KSDLNPNAKEFNPRSF)", 0.0007076],
  ["KSTLNPNAKEFNPRSF T3Y (KSYLNPNAKEFNPRSF)", 0.005309],
  ["KSTLNPNAKEFNPRSF T3E (KSELNPNAKEFNPRSF)", 0.2365]
]}

---

system: G3BP1 NFT2; assay type: binding, human; details: library DMS-CoV; bait G3BP1 NFT2; prey N; peptide APRITFGGPSDSTGSN; listed as aa = residue placed at this position; column sums to 1

{"columns": ["MONOMER_SEQUENCE", "DMS PSSM value, T (position 5)"],
 "data": [
  ["APRITFGGPSDSTGSN T5P (APRIPFGGPSDSTGSN)", 0],
  ["APRITFGGPSDSTGSN T5A (APRIAFGGPSDSTGSN)", 0],
  ["APRITFGGPSDSTGSN T5L (APRILFGGPSDSTGSN)", 0.04693],
  ["APRITFGGPSDSTGSN T5D (APRIDFGGPSDSTGSN)", 0]
]}

---

test system: PABPC1 PABC; assay type: binding, human; conditions: DMS-BM library, bait PABPC1 PABC, prey ATXN2, peptide KSTLNPNAKEFNPRSF; P = wild type, row aa = residue at this position

{"columns": ["MONOMER_SEQUENCE", "DMS-derived PSSM value, position P13"],
 "data": [
  ["KSTLNPNAKEFNPRSF P13E (KSTLNPNAKEFNERSF)", 0.006076],
  ["KSTLNPNAKEFNPRSF P13Q (KSTLNPNAKEFNQRSF)", 0.08339],
  ["KSTLNPNAKEFNPRSF P13S (KSTLNPNAKEFNSRSF)", 0.02375],
  ["KSTLNPNAKEFNPRSF P13V (KSTLNPNAKEFNVRSF)", 0.767]
]}

---

tested on: PABPC1 PABC; assay type: binding, human; settings: DMS-BM library, bait PABPC1 PABC, prey ATXN2, peptide TLNPNAKEFNPRSFSQ; E = wild type, row aa = residue at this position
Rule: DMS-derived PSSM value, position E8 below 0.02 gives 1. Equal to or above 0.02 gives -1.

{"columns": ["MONOMER_SEQUENCE", "LABEL_CLASS"],
 "data": [
  ["TLNPNAKEFNPRSFSQ E8G (TLNPNAKGFNPRSFSQ)", 1],
  ["TLNPNAKEFNPRSFSQ E8S (TLNPNAKSFNPRSFSQ)", -1],
  ["TLNPNAKEFNPRSFSQ E8A (TLNPNAKAFNPRSFSQ)", -1],
  ["TLNPNAKEFNPRSFSQ E8Y (TLNPNAKYFNPRSFSQ)", -1],
  ["TLNPNAKEFNPRSFSQ E8D (TLNPNAKDFNPRSFSQ)", 1],
  ["TLNPNAKEFNPRSFSQ E8L (TLNPNAKLFNPRSFSQ)", 1],
  ["TLNPNAKEFNPRSFSQ E8W (TLNPNAKWFNPRSFSQ)", 1],
  ["TLNPNAKEFNPRSFSQ E8H (TLNPNAKHFNPRSFSQ)", -1]
]}
